# procedure text: Henry solubility constant Hcp at 298.15 K (mol/(m3 Pa))
# condition parameters: reference: Morrison and Johnstone (1954)
readout name: Henry solubility constant Hcp

INSERT INTO measurements (mol_smiles, readout_number) VALUES
  ('[Ne]', '4.5e-06'),
  ('FC(F)(F)F', '2e-06'),
  ('[Ar]', '1.3e-05'),
  ('[Kr]', '2.4e-05'),
  ('[Xe]', '4.2e-05'),
  ('[He]', '3.7e-06');

---

# procedure text: Henry solubility constant Hcp at 298.15 K (mol/(m3 Pa))
# condition parameters: reference: Geffcken (1904)
Here the recorded Henry solubility constant Hcp is given for each entry.
readout name: Henry solubility constant Hcp

INSERT INTO measurements (compound, result) VALUES
  ('[HH] [hydrogen]', '7.8e-06'),
  ('O=C=O [carbon dioxide]', 0.00033),
  ('[N-]=[N+]=O [dinitrogen monoxide]', 0.00024),
  ('O=O [oxygen]', '1.2e-05');

---

Here the recorded Henry solubility constant Hcp is given for each entry.
# procedure text: Henry solubility constant Hcp at 298.15 K (mol/(m3 Pa))
# condition parameters: reference: Wu et al. (2022a)
readout name: Henry solubility constant Hcp

INSERT INTO assay_data (compound, readout_name, readout_number) VALUES
  ('CCCCCCCCO', 'Henry solubility constant Hcp', 0.17),
  ('CCCCC(CC)CO (centres undefined)', 'Henry solubility constant Hcp', 0.15),
  ('COc1c(Cl)cc(Cl)cc1Cl', 'Henry solubility constant Hcp', 0.023),
  ('C=CC(O)CCCCC (centres undefined)', 'Henry solubility constant Hcp', 0.19);

---

# procedure text: Henry solubility constant Hcp at 298.15 K (mol/(m3 Pa))
# condition parameters: reference: Li et al. (2008)
readout name: Henry solubility constant Hcp

INSERT INTO assay_data (compound, readout_number) VALUES
  ('Cc1ccccc1C [1,2-dimethylbenzene]', 0.0023),
  ('Clc1ccc(Cl)cc1 [1,4-dichlorobenzene]', 0.0033),
  ('Cc1cccc(C)c1 [1,3-dimethylbenzene]', 0.0014),
  ('Cc1ccc(C)c(C)c1 [1,2,4-trimethylbenzene]', 0.0017),
  ('c1ccccc1 [benzene]', 0.0018),
  ('Clc1ccccc1 [chlorobenzene]', 0.0024);

---

Here the recorded Henry solubility constant Hcp is given for each entry.
# procedure text: Henry solubility constant Hcp at 298.15 K (mol/(m3 Pa))
# condition parameters: reference: Kawamoto and Urano (1989)
readout name: Henry solubility constant Hcp

INSERT INTO results (molecule, cmp, readout_number) VALUES
  ('O=[N+]([O-])c1ccc(Oc2c(Cl)cc(Cl)cc2Cl)cc1', '>', 8.1),
  ('CC(CCl)OC(C)CCl (stereo unspecified)', '=', 0.42),
  ('CCN(CC)C(=O)SCc1ccc(Cl)cc1 [S-(4-chlorobenzyl) diethylthiocarbamate]', '=', 4.9),
  ('O=C1OCc2c(Cl)c(Cl)c(Cl)c(Cl)c21 [4,5,6,7-tetrachlorophthalide]', '=', 18),
  ('N#Cc1c(Cl)c(Cl)c(Cl)c(C#N)c1Cl', '=', 50),
  ('COP(=O)(OC)C(O)C(Cl)(Cl)Cl (stereo unspecified)', '>', 810);
